Tested on: P94_40
ASSAY_REMARKS: qHTS profiling for inhibitors of Plasmodium falciparum proliferation (AID 504749); further: nearly all actives have a fitted effect of over 60% in size
EXPERIMENTAL_PARAMETERS: P. falciparum in erythrocytes, SYBR Green DNA, 72 h; series mostly up to 28.7 µM
Results filed as inconclusive are left out. Calls of active or inactive are those of the source. The call rests on the fitted dose curve; in most records, active means well fitted inhibition curve with a large enough effect; inconclusive means small, poorly fitted or top-dose-only effect; inactive means flat fitted curve, though single readings scatter.
The reply should name one outcome from t = active, f = inactive

// below: answered molecules
Tell me the assay call for `C[n+]1c2cc(N)ccc2cc2ccc(N)cc21` please.
t

Check NC(=O)NC(CCC(=O)O)C(=O)O (stereo not drawn) too.
f

// query: C[C@@H]1C(SC2Cn3cnc[n+]3C2)=C(C(=O)[O-])N2C(=O)[C@H]([C@@H](C)O)[C@@H]12 (stereo partly drawn)
f

Another: `CO/N=C(/C(=O)N[C@@H]1C(=O)N2C(C(=O)O)=C(C[n+]3ccc(N)n3CCO)CS[C@H]12)c1csc(N)n1`
f

Same question, `CC(C)(C)NC[C@H](O)CSc1nc(-c2ccc(C(N)=O)s2)cs1` this time
f

Others:
Entry CCCC(=O)O[C@]1(C(=O)COC(C)=O)CC[C@H]2C3C[C@H](F)C4=CC(=O)C=CC4(C)[C@@]3(F)[C@@H](O)CC21C (stereo partly drawn) : call = ?
f

What do we get for C=NC(C(=O)NC1C(=O)N2C1SC(C)(C)C2C(=O)O)c1ccccc1 (stereo not drawn) ?
f

`C=C1C(=O)O[C@@H]2[C@@H]1CC/C(C)=C\CC[C@@]1(C)O[C@H]21` ?
f

Also CC(=O)N1CC(O)CC1C(=O)O (stereo not drawn) ?
f

Note, next up: CCC(=O)O[C@]1(C(=O)CCl)[C@@H](C)CC2C3C[C@H](F)C4=CC(=O)C=CC4(C)[C@@]3(F)C(O)CC21C (stereo partly drawn)
t

Now give it for O=C1NC(=O)C2C3C=CC(C3)C12 (stereo not drawn) too.
f

Further, for C[C@]12C=CC(=O)N[C@@H]1CC[C@@H]1C2CC[C@]2(C)C(C(=O)Nc3cc(C(F)(F)F)ccc3C(F)(F)F)CC[C@@H]12 (stereo partly drawn) ?
f

Another molecule: O=C(O)CC(O)CC(O)/C=C/c1c(C2CC2)nc2ccccc2c1-c1ccc(F)cc1 (stereo not drawn)
f

###

System: AS120
ASSAY_REMARKS: qHTS profiling for inhibitors of Plasmodium falciparum proliferation (AID 504749); further: nearly all actives have a fitted effect of over 60% in size
EXPERIMENTAL_PARAMETERS: P. falciparum in erythrocytes, SYBR Green DNA, 72 h; series mostly up to 28.7 µM
Results filed as inconclusive are left out. Active and inactive are the calls of the source. Calls follow the shape of the dose curve; as a rule, active = well fitted inhibition curve with a large enough effect; inconclusive = small, poorly fitted or top-dose-only effect; inactive = flat fitted curve, though single readings scatter.
// classify into y (active), n (inactive)

For C[C@]12C=CC(=O)N[C@@H]1CC[C@@H]1C2CC[C@]2(C)C(C(=O)Nc3cc(C(F)(F)F)ccc3C(F)(F)F)CC[C@@H]12 (some centres undefined) , which call appears in the assay record?
n

Try this molecule next: `C[C@H](O)[C@@H]1C(=O)N2C(C(=O)O)=C(SCCN=CN)C[C@@H]12`
n

Try CC(O)C(N)C(=O)O (centres undefined) next.
n

One more molecule: `CN[C@H](C)CCC=C(C)C`
y

Please give the result for `C[C@H](CN1c2ccccc2Sc2cccnc21)N(C)C` too.
y

Another molecule to look at: CCC(=O)O[C@]1(C(=O)CCl)[C@@H](C)CC2C3C[C@H](F)C4=CC(=O)C=CC4(C)[C@@]3(F)C(O)CC21C (some centres undefined)
y

Field entry: C=C[C@H]1CN2CCC1C[C@H]2[C@H](O)c1ccnc2ccc(OC)cc12 (some centres undefined)
y

Now this one: `CC[C@@H]1/C=C(\C)C[C@H](C)C[C@H](OC)[C@H]2O[C@@](O)(C(=O)C(=O)N3CCCC[C@H]3C(=O)O[C@H](/C(C)=C/[C@@H]3CC[C@H](Cl)[C@H](OC)C3)[C@H](C)[C@@H](O)CC1=O)[C@H](C)C[C@@H]2OC`
n

Now consider COC(c1ccccc1)(c1ccccc1)C(Oc1nc(C)cc(C)n1)C(=O)O (centres undefined) .
n
